measured_on: calpain-I isolated from human erythrocytes (Homo sapiens)
Construct: calpain-I—isolated from human erythrocytes
Sequence (P07384 whole entry): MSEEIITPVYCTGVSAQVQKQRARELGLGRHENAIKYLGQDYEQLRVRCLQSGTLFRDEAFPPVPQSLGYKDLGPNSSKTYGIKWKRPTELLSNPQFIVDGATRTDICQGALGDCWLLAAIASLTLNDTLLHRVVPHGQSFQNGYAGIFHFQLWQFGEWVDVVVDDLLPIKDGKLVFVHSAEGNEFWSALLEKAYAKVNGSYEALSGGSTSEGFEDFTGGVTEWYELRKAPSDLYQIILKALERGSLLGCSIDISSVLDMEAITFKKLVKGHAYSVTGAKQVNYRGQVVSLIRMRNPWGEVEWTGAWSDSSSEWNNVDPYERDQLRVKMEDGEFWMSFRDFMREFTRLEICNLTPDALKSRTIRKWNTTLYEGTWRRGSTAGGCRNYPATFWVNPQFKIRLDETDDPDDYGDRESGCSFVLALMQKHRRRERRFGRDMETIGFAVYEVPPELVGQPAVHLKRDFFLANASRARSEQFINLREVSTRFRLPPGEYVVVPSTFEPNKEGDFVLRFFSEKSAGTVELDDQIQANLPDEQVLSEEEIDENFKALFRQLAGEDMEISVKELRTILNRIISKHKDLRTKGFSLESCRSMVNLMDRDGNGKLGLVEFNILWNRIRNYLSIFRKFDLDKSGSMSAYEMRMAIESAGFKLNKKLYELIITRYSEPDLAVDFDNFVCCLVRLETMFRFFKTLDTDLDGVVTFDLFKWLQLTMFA
Sequence (P04632 whole entry partner): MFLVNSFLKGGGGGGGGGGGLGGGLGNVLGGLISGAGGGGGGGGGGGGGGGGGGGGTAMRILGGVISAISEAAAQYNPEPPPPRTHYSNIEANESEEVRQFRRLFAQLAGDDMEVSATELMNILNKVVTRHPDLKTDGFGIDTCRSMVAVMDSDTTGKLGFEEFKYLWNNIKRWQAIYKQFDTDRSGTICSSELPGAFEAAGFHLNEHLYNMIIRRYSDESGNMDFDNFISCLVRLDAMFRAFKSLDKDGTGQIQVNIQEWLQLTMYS
experiment_notes: Calpain I kinetic fluorescence enzyme inhibition assay
test_context: apparent Ki from IC50 by Cheng-Prussoff; average of 2 to 4 dose-effect plots
Structures can show the parent of a compound that is named as a salt.
Overview of recorded Ki for various molecules
assay_metric: Ki

[[record]]
molecule = "CCCCC(NC(=O)c1cccnc1-n1cnc(-c2ccccc2Cl)c1)C(=O)C(N)=O (stereo not drawn) [Example 20, hydrochloride]"
result = "≤ 40 nM"

[[record]]
molecule = "NC(=O)C(=O)C(Cc1ccccc1)NC(=O)c1cccnc1-n1ccc(-c2ccccc2C(F)(F)F)n1 (stereo not drawn)"
result = "40 to 100 nM"

[[record]]
molecule = "NC(=O)C(=O)C(Cc1ccccc1)NC(=O)c1cccnc1-n1ccc(-c2ccc(F)cc2Cl)n1 (stereo not drawn)"
result = "40 to 100 nM"

[[record]]
molecule = "NC(=O)C(=O)C(Cc1ccccc1)NC(=O)c1cccnc1-n1ccc(-c2ccc(-n3ccnc3)cc2)n1 (stereo not drawn)"
result = "≤ 40 nM"

[[record]]
molecule = "NC(=O)C(=O)C(Cc1ccccc1)NC(=O)c1cccnc1-n1ccc(-c2ccc(C(F)(F)F)cc2)n1 (stereo not drawn)"
result = "40 to 100 nM"

[[record]]
molecule = "COc1ccc(CC(NC(=O)c2cccnc2-n2ccc(-c3ccc(F)cc3F)n2)C(=O)C(N)=O)cc1 (stereo not drawn)"
result = "≤ 40 nM"

[[record]]
molecule = "COc1ccc(CC(NC(=O)c2cccnc2-n2ccc(-c3ccccc3)n2)C(=O)C(N)=O)cc1 (stereo not drawn)"
result = "40 to 100 nM"

[[record]]
molecule = "Cl.NC(=O)C(=O)C(Cc1ccccc1)NC(=O)c1cccnc1-n1ccc(-c2cccc(CN3CCOCC3)c2)n1 (stereo not drawn) [Example 52, hydrochloride]"
result = "40 to 100 nM"

[[record]]
molecule = "COc1ccc(CC(NC(=O)c2cccnc2-n2ccc(-c3cccc(C(F)(F)F)c3)n2)C(=O)C(N)=O)cc1 (stereo not drawn)"
result = "≤ 40 nM"

[[record]]
molecule = "NC(=O)C(=O)C(Cc1ccccc1)NC(=O)c1cccnc1-n1cc(CN2CCCC2)c(-c2cccc(C(F)(F)F)c2)n1 (stereo not drawn)"
result = "40 to 100 nM"

[[record]]
molecule = "N#Cc1cnc(-n2ccc(-c3ccccc3)n2)c(C(=O)NC(Cc2ccccc2)C(=O)C(N)=O)c1 (stereo not drawn)"
result = "40 to 100 nM"

[[record]]
molecule = "NC(=O)C(=O)C(Cc1ccc(Cl)cc1)NC(=O)c1cccnc1-n1ccc(-c2ccccc2)n1 (stereo not drawn)"
result = "40 to 100 nM"

[[record]]
molecule = "CCCCC(NC(=O)c1cccnc1-n1cnc(-c2ccc(N3CCOCC3)cc2)c1)C(=O)C(N)=O.Cl (stereo not drawn) [Example 15, hydrochloride]"
result = "≤ 40 nM"

[[record]]
molecule = "NC(=O)C(=O)C(Cc1ccccc1)NC(=O)c1cccnc1-n1ccc(-c2ccc(Cl)cc2)n1 (stereo not drawn)"
result = "40 to 100 nM"

[[record]]
molecule = "COc1cc(Cl)ccc1-c1ccn(-c2ncccc2C(=O)NC(Cc2ccccc2)C(=O)C(N)=O)n1 (stereo not drawn)"
result = "40 to 100 nM"


====

measured_on: calpain-I isolated from human erythrocytes (Homo sapiens)
Construct: calpain-I—isolated from human erythrocytes
experiment_notes: Calpain I kinetic fluorescence enzyme inhibition assay
test_context: apparent Ki from IC50 by Cheng-Prussoff; average of 2 to 4 dose-effect plots
pKi: −log10 of the molar value.
assay_metric: pKi

[[record]]
compound = "NC(=O)C(=O)C(Cc1ccccc1)NC(=O)c1cccnc1-n1ccc(-c2ccc(Cl)s2)n1 (stereo not shown)"
assay_metric = "pKi"
result = "≥ 7.40"

[[record]]
compound = "NC(=O)C(=O)C(Cc1ccccc1)NC(=O)c1cccnc1-n1ccc(-c2c(F)ccc(Cl)c2Cl)n1 (stereo not shown)"
assay_metric = "pKi"
result = "≥ 7.40"

[[record]]
compound = "COc1ccccc1-c1ccn(-c2ncccc2C(=O)NC(Cc2ccccc2)C(=O)C(N)=O)n1 (stereo not shown)"
assay_metric = "pKi"
result = "≥ 7.40"

[[record]]
compound = "COc1ccc(OC)c(-c2ccn(-c3ncccc3C(=O)NC(Cc3ccccc3)C(=O)C(N)=O)n2)c1 (stereo not shown)"
assay_metric = "pKi"
result = "7.00 to 7.40"

[[record]]
compound = "NC(=O)C(=O)C(Cc1ccccc1)NC(=O)c1cccnc1-n1ccc(-c2cccc(C(F)(F)F)c2Cl)n1 (stereo not shown)"
assay_metric = "pKi"
result = "7.00 to 7.40"

[[record]]
compound = "Cl.NC(=O)C(=O)C(Cc1ccccc1)NC(=O)c1cccnc1-n1cnc(-c2ccc(C(F)(F)F)cc2)c1 (stereo not shown) [Example 18, hydrochloride]"
assay_metric = "pKi"
result = "≥ 7.40"

[[record]]
compound = "COc1ccc(CC(NC(=O)c2cccnc2-n2ccc(-c3ccc(Cl)cc3Cl)n2)C(=O)C(N)=O)cc1 (stereo not shown)"
assay_metric = "pKi"
result = "≥ 7.40"

